# System: SF-268
# EXPERIMENT NOTES: NCI tumour cell line growth inhibition, 48 h
The source made the active and inactive calls. No stated cut-off is given here; in the data, active = GI50 up to about 1.1 µM and inactive = higher.
READOUT LABEL: GI50

Here's what some known entries look like.
Task item: Which measured GI50 value corresponds to C/C(=N/N(C=O)C[n+]1ccccc1)C(CN(CC(C)C)CC(C)C)C(=O)Nc1ccc(C)cc1C (stereo not given) ?
Reply: 43 µM (inactive)

Task item: Another: `O=C(O)C1(Nc2ccc(Cl)cc2)CCCC1`
Reply: > 100 µM (inactive)

Task item: Another: `C[C@H]1C=C2C(=O)O[C@H]3CC[C@@H](C1)[C@@]23O`
Reply: 3.13 µM (inactive)

Consider the record given below.
Task item: Which measured GI50 value corresponds to `O/N=N/c1ccc2ccccc2n1` ?
Reply: > 100 µM (inactive)
